5-HT1B % inhibition for assorted compounds
# Target Entity: serotonin receptor 5-HT1B (Rattus norvegicus)
# Construct: membrane species are prepared from rat brains (Wistar) by homogenization of species of rat brain-cortices; from tissue; host or cells: rat (Wistar) brain cortex
# Sequence (P28564 whole entry): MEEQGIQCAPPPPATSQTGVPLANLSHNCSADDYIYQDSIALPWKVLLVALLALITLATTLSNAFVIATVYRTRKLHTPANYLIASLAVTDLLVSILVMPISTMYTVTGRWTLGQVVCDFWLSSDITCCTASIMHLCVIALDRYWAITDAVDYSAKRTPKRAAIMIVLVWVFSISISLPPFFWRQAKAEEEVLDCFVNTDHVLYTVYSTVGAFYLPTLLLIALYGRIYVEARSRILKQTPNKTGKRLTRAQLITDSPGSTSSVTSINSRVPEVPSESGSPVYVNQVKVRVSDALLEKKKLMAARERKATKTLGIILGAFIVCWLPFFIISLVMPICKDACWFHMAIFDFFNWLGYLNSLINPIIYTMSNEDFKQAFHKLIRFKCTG
# Protocol: Radioligand binding to serotonin receptor 5-HT1B ([125I] cyanopindolol, rat brain cortex membranes)
# Test Context: 10 µM ligand

[
  {
    "Compound": "Cc1ccc2c(c1)c1c(n2CCc2ccccn2)CCCN(C)C1",
    "Target Entity": "serotonin receptor 5-HT1B (Rattus norvegicus)",
    "Unit Abbreviation": "%",
    "5-HT1B % inhibition": 6
  },
  {
    "Compound": "CN1CCc2c(c3cc(F)ccc3n2C#Cc2ccccc2)C1",
    "Target Entity": "serotonin receptor 5-HT1B (Rattus norvegicus)",
    "Unit Abbreviation": "%",
    "5-HT1B % inhibition": 6
  },
  {
    "Compound": "Cc1ccc2c(c1)c1c(n2C#Cc2ccccc2)CCN(C)C1",
    "Target Entity": "serotonin receptor 5-HT1B (Rattus norvegicus)",
    "Unit Abbreviation": "%",
    "5-HT1B % inhibition": 26
  },
  {
    "Compound": "CN1CCc2c(c3cc(F)ccc3n2CC(O)c2ccccc2)C1 (stereo not shown)",
    "Target Entity": "serotonin receptor 5-HT1B (Rattus norvegicus)",
    "Unit Abbreviation": "%",
    "5-HT1B % inhibition": 5
  },
  {
    "Compound": "Cc1ccc2c(c1)c1c(n2/C=C\\c2ccccc2)CCN(C)C1",
    "Target Entity": "serotonin receptor 5-HT1B (Rattus norvegicus)",
    "Unit Abbreviation": "%",
    "5-HT1B % inhibition": 86
  },
  {
    "Compound": "Cc1ccc2c(c1)c1c(n2CC(O)c2ccccc2)CCN(C)C1 (stereo not shown)",
    "Target Entity": "serotonin receptor 5-HT1B (Rattus norvegicus)",
    "Unit Abbreviation": "%",
    "5-HT1B % inhibition": 41
  },
  {
    "Compound": "Cc1ccc(CCn2c3c(c4cc(C)ccc42)CN(C)CC3)cc1",
    "Target Entity": "serotonin receptor 5-HT1B (Rattus norvegicus)",
    "Unit Abbreviation": "%",
    "5-HT1B % inhibition": 59
  }
]

---

# Target Entity: recombinant human 5-HT2A receptor (Homo sapiens)
# Construct: expressed in transfected cells; host or cells: CHO-K1
# Sequence (P28223 whole entry): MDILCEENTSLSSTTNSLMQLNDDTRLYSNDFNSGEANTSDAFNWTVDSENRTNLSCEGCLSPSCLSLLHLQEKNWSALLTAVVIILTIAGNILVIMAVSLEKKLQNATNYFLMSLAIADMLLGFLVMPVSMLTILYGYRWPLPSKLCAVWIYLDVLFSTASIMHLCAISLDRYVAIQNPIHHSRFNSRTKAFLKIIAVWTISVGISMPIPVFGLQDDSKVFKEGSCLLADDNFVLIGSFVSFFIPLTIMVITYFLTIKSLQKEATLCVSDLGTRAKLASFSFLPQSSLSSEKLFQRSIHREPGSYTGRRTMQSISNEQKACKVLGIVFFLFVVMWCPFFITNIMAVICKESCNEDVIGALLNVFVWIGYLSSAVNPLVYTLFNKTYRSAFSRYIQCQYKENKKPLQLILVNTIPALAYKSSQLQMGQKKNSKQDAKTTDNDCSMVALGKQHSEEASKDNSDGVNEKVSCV
# Protocol: Radioligand binding to serotonin receptor 5-HT2A ([3H] Ketanserin, CHO-K1 membranes)
# Test Context: 10 µM ligand
Structures can show the parent of a compound that is named as a salt.

[
  {
    "Compound": "Cc1ccc2c(c1)c1c(n2CCc2ccncc2)CCN(C)C1 [1.1.2(5-2)·2HCl]",
    "inhibition at 10 µM [%]": 88
  },
  {
    "Compound": "Cc1ccc2c(c1)c1c(n2CCc2ccc(C(F)(F)F)cc2)CCN(C)C1 [1.1.2(1-18)·HCl]",
    "inhibition at 10 µM [%]": 100
  },
  {
    "Compound": "Cc1ccc2c(c1)c1c(n2CCc2ccccc2)CCCN(C)C1 [1.2.2(1-2)·HCl]",
    "inhibition at 10 µM [%]": 89
  },
  {
    "Compound": "Cc1ccc2c(c1)c1c(n2CCc2ccc(F)cc2)CCN(C)C1 [1.1.2(1-16)·HCl]",
    "inhibition at 10 µM [%]": 99
  },
  {
    "Compound": "Cc1ccc2c(c1)c1c(n2CCCc2ccccc2)CCN(C)C1 [1.3.3(2)·HCl]",
    "inhibition at 10 µM [%]": 99
  },
  {
    "Compound": "Cc1ccc2c(c1)[C@@H]1CN(C)CCC[C@@H]1N2CCc1ccc(C)nc1 (relative stereo) [1.6.1(2)·3HCl]",
    "inhibition at 10 µM [%]": -4
  }
]

---

# Target Entity: recombinant human 5-HT6 receptor (Homo sapiens, UniProt P50406)
# Construct: expressed in transfected cells; host or cells: HeLa
# Sequence (P50406 whole entry): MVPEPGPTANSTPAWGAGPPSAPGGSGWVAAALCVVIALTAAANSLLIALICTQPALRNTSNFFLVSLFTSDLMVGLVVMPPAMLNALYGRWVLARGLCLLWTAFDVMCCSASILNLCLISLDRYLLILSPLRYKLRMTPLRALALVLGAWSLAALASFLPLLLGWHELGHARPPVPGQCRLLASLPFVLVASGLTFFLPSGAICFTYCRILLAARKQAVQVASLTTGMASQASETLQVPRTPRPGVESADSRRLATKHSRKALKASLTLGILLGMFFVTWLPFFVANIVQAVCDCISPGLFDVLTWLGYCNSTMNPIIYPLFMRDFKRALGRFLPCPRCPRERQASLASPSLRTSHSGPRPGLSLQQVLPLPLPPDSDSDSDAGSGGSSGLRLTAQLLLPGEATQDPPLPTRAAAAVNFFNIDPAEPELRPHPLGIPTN
# Protocol: Radioligand binding to serotonin receptor 5-HT6 ([3H] Lysergic acid diethylamide, HeLa membranes)
# Test Context: 10 µM ligand
Rule: 1 for 5-HT6 % inhibition not less than 90%, 0 for anything less.

[
  {
    "Molecule": "Cc1ccc2c(c1)c1c(n2C#Cc2ccccc2)CCN(C)C1",
    "Assigned Category": 1
  },
  {
    "Molecule": "CN1CCc2c(c3cc(F)ccc3n2C#Cc2ccccc2)C1",
    "Assigned Category": 1
  },
  {
    "Molecule": "Cc1ccc2c(c1)c1c(n2CC(O)c2ccccc2)CCN(C)C1 (centres unmarked)",
    "Assigned Category": 1
  },
  {
    "Molecule": "Cc1ccc2c(c1)c1c(n2CCc2ccccn2)CCCN(C)C1",
    "Assigned Category": 0
  }
]

---

Measured inhibition at 10 µM by item
# Target Entity: recombinant human 5-HT2B receptor (Homo sapiens, UniProt P41595)
# Construct: expressed in transfected cells; host or cells: CHO-K1
# Sequence (P41595 whole entry): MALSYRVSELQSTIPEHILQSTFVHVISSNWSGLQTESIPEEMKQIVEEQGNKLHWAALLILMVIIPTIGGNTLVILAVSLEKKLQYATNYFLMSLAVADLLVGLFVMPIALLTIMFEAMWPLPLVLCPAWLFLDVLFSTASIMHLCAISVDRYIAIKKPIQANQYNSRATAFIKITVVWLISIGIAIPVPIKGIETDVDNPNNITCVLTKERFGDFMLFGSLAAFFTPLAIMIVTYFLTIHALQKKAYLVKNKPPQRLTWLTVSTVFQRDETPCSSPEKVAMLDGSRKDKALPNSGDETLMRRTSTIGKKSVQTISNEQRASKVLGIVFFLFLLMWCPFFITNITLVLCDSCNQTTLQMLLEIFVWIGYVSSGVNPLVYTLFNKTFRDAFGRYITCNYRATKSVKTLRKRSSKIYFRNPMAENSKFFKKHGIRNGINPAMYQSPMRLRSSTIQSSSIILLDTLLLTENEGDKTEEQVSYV
# Protocol: Radioligand binding to serotonin receptor 5-HT2B ([3H] Lysergic acid diethylamide, CHO-K1 membranes)
# Test Context: read-out: 5-HT2B % inhibition
Where a name gives a salt, the structure may show the parent alone.
Property Name: inhibition at 10 µM (%)

[
  {
    "Molecule": "Cc1ccc2c(c1)c1c(n2CCc2ccc(F)cc2)CCN(C)C1 [1.1.2(1-16)·HCl]",
    "Property Name": "inhibition at 10 µM",
    "Unit Abbreviation": "%",
    "Endpoint Value": 91
  },
  {
    "Molecule": "Cc1ccc2c(c1)c1c(n2CCc2ccccc2)CCN(C)C1 [1.1.2(1-2)·HCl]",
    "Property Name": "inhibition at 10 µM",
    "Unit Abbreviation": "%",
    "Endpoint Value": 100
  },
  {
    "Molecule": "Cc1ccc2c(c1)c1c(n2Cc2ccccc2)CCCN(C)C1 [1.10(4)·HCl]",
    "Property Name": "inhibition at 10 µM",
    "Unit Abbreviation": "%",
    "Endpoint Value": 70
  },
  {
    "Molecule": "Cc1ccc2c(c1)[C@@H]1CN(C)CCC[C@@H]1N2CCc1ccc(C)nc1 (relative stereo) [1.6.1(2)·3HCl]",
    "Property Name": "inhibition at 10 µM",
    "Unit Abbreviation": "%",
    "Endpoint Value": -2
  },
  {
    "Molecule": "CN1CCc2c(c3cc(F)ccc3n2Cc2ccccc2)C1 [1.9(3)·HCl]",
    "Property Name": "inhibition at 10 µM",
    "Unit Abbreviation": "%",
    "Endpoint Value": 95
  },
  {
    "Molecule": "Cc1ccc2c(c1)c1c(n2CCc2ccncc2)CCN(C)C1 [1.1.2(5-2)·2HCl]",
    "Property Name": "inhibition at 10 µM",
    "Unit Abbreviation": "%",
    "Endpoint Value": 80
  },
  {
    "Molecule": "CN1CCc2c(c3cc(F)ccc3n2CCCc2ccccc2)C1 [1.3.3(8)·HCl]",
    "Property Name": "inhibition at 10 µM",
    "Unit Abbreviation": "%",
    "Endpoint Value": 96
  },
  {
    "Molecule": "Cc1ccc2c(c1)c1c(n2CCCc2ccccc2)CCN(C)C1 [1.3.3(2)·HCl]",
    "Property Name": "inhibition at 10 µM",
    "Unit Abbreviation": "%",
    "Endpoint Value": 95
  },
  {
    "Molecule": "CN1CCc2c(c3cc(C(F)(F)F)ccc3n2CCc2ccccc2)C1 [1.1.2(1-7)·HCl]",
    "Property Name": "inhibition at 10 µM",
    "Unit Abbreviation": "%",
    "Endpoint Value": 89
  },
  {
    "Molecule": "COc1ccc(CCn2c3c(c4cc(C)ccc42)CN(C)CC3)cc1 [1.1.2(1-14)·HCl]",
    "Property Name": "inhibition at 10 µM",
    "Unit Abbreviation": "%",
    "Endpoint Value": 97
  }
]

---

# Target Entity: human α2A receptor (Homo sapiens, UniProt P08913)
# Construct: expressed in transfected cells; host or cells: Sf9
# Sequence (P08913 whole entry): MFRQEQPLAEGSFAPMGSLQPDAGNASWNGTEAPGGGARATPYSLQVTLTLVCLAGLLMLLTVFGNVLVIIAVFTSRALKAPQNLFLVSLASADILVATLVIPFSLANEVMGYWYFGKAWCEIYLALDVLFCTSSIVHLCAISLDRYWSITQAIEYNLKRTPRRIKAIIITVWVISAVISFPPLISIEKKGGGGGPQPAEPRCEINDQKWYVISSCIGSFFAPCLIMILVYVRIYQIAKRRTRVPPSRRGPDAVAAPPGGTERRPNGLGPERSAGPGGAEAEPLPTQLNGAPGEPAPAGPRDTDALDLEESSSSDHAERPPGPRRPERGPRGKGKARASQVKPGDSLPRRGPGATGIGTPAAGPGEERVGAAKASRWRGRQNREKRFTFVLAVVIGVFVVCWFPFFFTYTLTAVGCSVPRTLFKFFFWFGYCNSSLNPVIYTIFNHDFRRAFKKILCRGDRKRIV
# Protocol: Radioligand binding to adrenergic receptor α2A ([3H] MK-912, Sf9 membranes)
# Test Context: read-out: α-Adrenoceptor, % inhibition α2A
# Excerpt: For this purpose sDNA of human α2A receptor is expressed in Sf9 cells, as described in [Uhlen S, Porter AC and Neubig RR. […] J Pharmacol ExpTher. […] J Pharmacol ExpTher. […] Yohimbine is used as positive control.
Counter-ions that a name gives are not always drawn.
Listing of recorded inhibition at 10 µM by entry.

[
  {
    "Compound": "Cc1ccc2c(c1)c1c(n2CCc2cccnc2)CCCN(C)C1 [1.2.2(3-2)·2HCl]",
    "Unit Abbreviation": "%",
    "inhibition at 10 µM": 71
  },
  {
    "Compound": "CN1CCc2c(c3ccccc3n2Cc2ccccc2)C1.Cl [1.9(1)·HCl]",
    "Unit Abbreviation": "%",
    "inhibition at 10 µM": 100
  },
  {
    "Compound": "Cc1ccc2c(c1)[C@@H]1CN(C)CCC[C@@H]1N2CCc1ccc(C)nc1 (relative stereo) [1.6.1(2)·3HCl]",
    "Unit Abbreviation": "%",
    "inhibition at 10 µM": 82
  },
  {
    "Compound": "Cc1ccc2c(c1)c1c(n2CCc2ccccc2)CCN(C)C1 [1.1.2(1-2)·HCl]",
    "Unit Abbreviation": "%",
    "inhibition at 10 µM": 95
  },
  {
    "Compound": "Cc1ccc2c(c1)[C@@H]1CN(C)CCC[C@@H]1N2CCc1cccnc1 (relative stereo) [1.6.1(1)·3HCl]",
    "Unit Abbreviation": "%",
    "inhibition at 10 µM": 84
  },
  {
    "Compound": "Cc1ccc2c(c1)c1c(n2CCc2ccccn2)CCN(C)C1 [1.1.2(2-3)·2HCl]",
    "Unit Abbreviation": "%",
    "inhibition at 10 µM": 93
  }
]
